Reference for the values: patent US20180099931A1

biological target: F508delCFTR (Homo sapiens, UniProt P13569, DEL508-508); construct: expressed in transfected cells; host or cells: CFBE41o- human lung-derived epithelial cells (CFBE4lo-F508delCFTR-HRP), doxycycline-inducible; test: Cell Surface Expression-Horse Radish Peroxidase (CSE-HRP) Assay; assay type: cell-based; conditions: test compound without co-corrector; maximum at any tested concentration, normalized to on-plate positive control; read-out: Maximum % activity (without co-corrector);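 on Maximum % activity (without co-corrector): percent of the 2 µM on-plate positive control corrector response above DMSO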
Sequence (P13569 with tags, fused parts or gaps DEL508-508): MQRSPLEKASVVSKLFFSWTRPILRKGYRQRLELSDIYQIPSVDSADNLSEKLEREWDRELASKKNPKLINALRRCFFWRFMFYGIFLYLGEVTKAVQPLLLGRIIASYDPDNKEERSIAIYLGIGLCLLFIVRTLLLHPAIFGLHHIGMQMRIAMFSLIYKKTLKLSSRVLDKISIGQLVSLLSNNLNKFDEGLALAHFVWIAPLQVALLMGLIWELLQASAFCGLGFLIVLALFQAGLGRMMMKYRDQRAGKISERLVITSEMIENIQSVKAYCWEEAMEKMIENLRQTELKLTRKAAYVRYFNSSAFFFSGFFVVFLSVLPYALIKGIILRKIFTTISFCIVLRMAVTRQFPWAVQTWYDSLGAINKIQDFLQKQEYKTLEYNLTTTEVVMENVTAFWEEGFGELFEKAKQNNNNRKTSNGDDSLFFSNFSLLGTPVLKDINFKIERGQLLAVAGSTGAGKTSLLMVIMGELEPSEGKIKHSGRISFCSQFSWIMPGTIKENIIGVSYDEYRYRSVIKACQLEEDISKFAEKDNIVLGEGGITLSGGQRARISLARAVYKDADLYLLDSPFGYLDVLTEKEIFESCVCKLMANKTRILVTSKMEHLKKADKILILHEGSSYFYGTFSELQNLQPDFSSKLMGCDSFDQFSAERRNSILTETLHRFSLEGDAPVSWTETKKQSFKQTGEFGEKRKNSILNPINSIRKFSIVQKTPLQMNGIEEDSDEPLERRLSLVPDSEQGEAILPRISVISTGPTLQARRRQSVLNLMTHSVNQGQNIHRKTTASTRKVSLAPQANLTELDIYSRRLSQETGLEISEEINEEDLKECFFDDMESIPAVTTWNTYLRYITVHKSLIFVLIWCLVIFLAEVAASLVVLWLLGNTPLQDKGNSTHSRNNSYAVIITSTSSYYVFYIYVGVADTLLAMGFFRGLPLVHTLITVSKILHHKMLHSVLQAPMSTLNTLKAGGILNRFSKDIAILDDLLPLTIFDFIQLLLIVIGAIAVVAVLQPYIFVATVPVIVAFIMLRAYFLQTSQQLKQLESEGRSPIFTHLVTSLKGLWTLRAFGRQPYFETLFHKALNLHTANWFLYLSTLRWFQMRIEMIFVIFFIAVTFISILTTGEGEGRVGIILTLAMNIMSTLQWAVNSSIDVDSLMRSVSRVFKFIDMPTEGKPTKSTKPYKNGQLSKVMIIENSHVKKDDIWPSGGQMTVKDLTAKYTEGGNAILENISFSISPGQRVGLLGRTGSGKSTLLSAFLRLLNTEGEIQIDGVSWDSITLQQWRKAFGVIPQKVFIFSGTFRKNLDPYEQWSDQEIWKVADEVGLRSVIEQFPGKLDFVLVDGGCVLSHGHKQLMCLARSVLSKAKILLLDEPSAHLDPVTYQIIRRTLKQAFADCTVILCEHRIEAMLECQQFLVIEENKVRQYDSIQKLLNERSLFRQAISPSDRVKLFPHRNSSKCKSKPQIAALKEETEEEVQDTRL
metricName: Emax

Input: Determine its reported Emax: COc1nc(C(C)(C)C)ccc1CN[C@H]1[C@H](C(C)(C)C)[C@@H](C(=O)O)N(C(=O)[C@@H]2OC[C@@H]3CCC[C@@H]32)[C@H]1c1ccccc1 (relative stereo) [II-431]
Output: 100 to 200%

Input: Determine its reported Emax: COc1cccnc1CN[C@@H]1[C@@H](C(C)(C)C)[C@H](C(=O)O)N(C(=O)C2CCCCC2)[C@@H]1c1ccccc1 (racemic) [III-21]
Output: < 100%

Input: Determine its reported Emax: COc1ccc(C(C)(C)C)cc1CN[C@H]1[C@H](C(C)(C)C)[C@@H](C(=O)O)N(C(=O)CC(C)(O)C(C)C)[C@H]1c1ccccc1 (stereo partly drawn) [II-372]
Output: > 200%

----------
target: F508delCFTR (Homo sapiens, UniProt P13569, DEL508-508); construct: expressed in transfected cells; host or cells: CFBE41o- human lung-derived epithelial cells (CFBE4lo-F508delCFTR-HRP), doxycycline-inducible; experiment: Cell Surface Expression-Horse Radish Peroxidase (CSE-HRP) Assay; assay type: cell-based; settings: CSE-HRP; without co-corrector; maximum at any tested concentration, normalized to on-plate positive control; read-out: Maximum % activity (without co-corrector);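 on Maximum % activity (without co-corrector): percent of the 2 µM on-plate positive control corrector response above DMSO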
Kindly supply the reported Emax values for the records listed here.

Input: Determine its reported Emax: "COc1ncc(C(F)(F)F)cc1CN[C@H]1[C@H](C(C)(C)C)[C@@H](C(=O)O)N(C(=O)[C@@H]2CCCO2)[C@H]1c1ccccc1Br"
Output: 100 to 200%

Input: Determine its reported Emax: "CCc1ccccc1[C@H]1[C@@H](NCc2cc(C3CCC3)cnc2OC)[C@H](C(C)(C)C)[C@@H](C(=O)O)N1C(=O)[C@@H]1CCCCO1"
Output: > 200%

Input: Determine its reported Emax: "COc1ccc(C(C)(C)C)cc1CN[C@H]1[C@H](C(C)(C)C)[C@@H](C(=O)O)N(C(=O)Cc2cccnc2)[C@H]1c1ccccc1"
Output: 100 to 200%

Input: Determine its reported Emax: "COc1ccc(C2CCC2)cc1CN[C@H]1[C@H](C(C)(C)OC)[C@@H](C(=O)O)N(C(=O)C2CCCCC2)[C@H]1c1ccccc1"
Output: > 200%

Input: Determine its reported Emax: COc1cc(C(F)(F)F)ccc1CN[C@@H]1[C@@H](C(C)(C)C)[C@H](C(=O)O)N(C(=O)C2CCCOC2)[C@@H]1c1ccccc1N(C)C (mixture of isomers)
Output: 100 to 200%

Input: Determine its reported Emax: "CC(C)(C)[C@H]1[C@H](NCc2coc3ccccc23)[C@H](c2ccccc2)N(C(=O)C2CCCCC2)[C@@H]1C(=O)O"
Output: < 100%

----------
biological target: F508delCFTR (Homo sapiens, UniProt P13569, DEL508-508); construct: expressed in transfected cells; host or cells: CFBE41o- human lung-derived epithelial cells (CFBE4lo-F508delCFTR-HRP), doxycycline-inducible; test: Cell Surface Expression-Horse Radish Peroxidase (CSE-HRP) Assay; format: cell-based; conditions: CSE-HRP; without co-corrector; maximum at any tested concentration, normalized to on-plate positive control; read-out: Maximum % activity (without co-corrector);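 on Maximum % activity (without co-corrector): percent of the 2 µM on-plate positive control corrector response above DMSO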
Kindly supply the reported Emax values for the records listed here.

Input: Determine its reported Emax: "COc1ccc(C(C)(C)C)cc1CN[C@H]1[C@H](C(C)(C)C)[C@@H](C(=O)O)N(C(=O)C2(c3ccccn3)CC2)[C@H]1c1ccccc1"
Output: > 200%

Input: Determine its reported Emax: "COc1ccc(-c2ccccc2)cc1CN[C@H]1[C@H](C(C)(C)C)[C@@H](C(=O)O)N(C(=O)OC(C)C)[C@H]1c1ccccc1"
Output: > 200%

Input: Determine its reported Emax: COc1ccc(C(C)(C)C)cc1CN[C@H]1[C@H](C(C)(C)C)[C@@H](C(=O)O)N(C(=O)CC2CCCOC2)[C@H]1c1ccccc1 (stereo partly drawn)
Output: > 200%

Input: Determine its reported Emax: "COc1cc(C(F)(F)F)ccc1CN[C@H]1[C@H](C(C)(C)C)[C@@H](C(=O)O)N(C(=O)[C@@H]2CCCCO2)[C@H]1c1ccccc1Br"
Output: 100 to 200%

Input: Determine its reported Emax: "COc1ccc(C(C)(C)C)cc1CN[C@H]1[C@H](C(C)(C)C)[C@@H](C(=O)O)N(C(=O)CN2CCOCC2)[C@H]1c1ccccc1"
Output: 100 to 200%

Input: Determine its reported Emax: COc1ccc(C(C)(C)C)cc1CN[C@H]1[C@H](C(C)(C)C)[C@@H](C(=O)O)N(C(=O)C(C)CC(F)(F)F)[C@H]1c1ccccc1 (stereo partly drawn)
Output: > 200%

----------
Kindly supply the reported EC50 values for the records listed here.
target: F508delCFTR (Homo sapiens, UniProt P13569, DEL508-508); construct: expressed in transfected cells; host or cells: CFBE41o- human lung-derived epithelial cells (CFBE4lo-F508delCFTR-HRP), doxycycline-inducible; assay: Cell Surface Expression-Horse Radish Peroxidase (CSE-HRP) Assay; format: cell-based; conditions: test compound without co-corrector; read-out: EC50 (without co-corrector)

Input: Determine its reported EC50: "COc1ccc(C(C)(C)C)cc1CN[C@H]1[C@H](C(C)(C)C)[C@@H](C(=O)O)N(C(=O)OC(C)(C)C)[C@H]1c1cccnc1OC"
Output: 1000 to 10000 nM

Input: Determine its reported EC50: COc1ccc(C(C)(C)C)cc1CN[C@H]1[C@H](C(C)(C)C)[C@@H](C(=O)O)N(C(=O)C2CCc3ccccc3O2)[C@H]1c1cccnc1N(C)C (single isomer, unassigned) [Example 43]
Output: 1000 to 10000 nM

Input: Determine its reported EC50: "COc1ncc(C(F)(F)F)cc1CN[C@H]1[C@H](C(C)(C)C)[C@@H](C(=O)O)N(C(=O)OC(C)C)[C@H]1c1ccccc1C1CC1"
Output: < 1000 nM

Input: Determine its reported EC50: "COc1ccc(C(C)(C)C)cc1CN[C@H]1[C@H](C(C)(C)C)[C@@H](C(=O)O)N(C(=O)[C@@H]2CCCC(F)(F)C2)[C@H]1c1ccccc1"
Output: < 1000 nM

Input: Determine its reported EC50: COc1ccc(C(C)(C)C)cc1CN[C@H]1[C@H](C(C)(C)C)[C@@H](C(=O)O)N(C(=O)C2CCc3ccc(F)cc3O2)[C@H]1c1cccnc1N(C)C (single isomer, unassigned) [II-452]
Output: 1000 to 10000 nM

Input: Determine its reported EC50: COc1ncc(C2CCC2)cc1CN[C@H]1[C@H](C(C)(C)C)[C@@H](C(=O)O)N(C(=O)C2CCCCC2C(F)(F)F)[C@H]1c1ccccc1 (some centres unmarked)
Output: < 1000 nM

Input: Determine its reported EC50: "COc1ccc(C(C)(C)C)cc1CN[C@H]1[C@H](C(C)(C)C)[C@@H](C(=O)O)N(C(=O)OC(C)C)[C@H]1c1ccccc1C(C)C"
Output: < 1000 nM

Input: Determine its reported EC50: "COc1ncc(C2CCC2)cc1CN[C@H]1[C@H](C(C)(C)C)[C@@H](C(=O)O)N(C(=O)C2CCCCC2)[C@H]1c1ccccc1"
Output: < 1000 nM

Input: Determine its reported EC50: COc1cc(Cl)nc(N[C@@H]2[C@@H](C(C)(C)C)[C@H](C(=O)O)N(C(=O)C3CCCCC3)[C@@H]2c2ccccc2)n1 (racemic)
Output: 1000 to 10000 nM

Input: Determine its reported EC50: "COc1ccc(C2(C(F)(F)F)CC2)cc1CN[C@H]1[C@H](C(C)(C)C)[C@@H](C(=O)O)N(C(=O)OC(C)C)[C@H]1c1ccccc1"
Output: 1000 to 10000 nM

Input: Determine its reported EC50: "COc1cc2c(cc1CN[C@H]1[C@H](C(C)(C)C)[C@@H](C(=O)O)N(C(=O)[C@@H]3CCCC(F)(F)C3)[C@H]1c1ccccc1)CCC2"
Output: 1000 to 10000 nM

----------
molecular target: F508delCFTR (Homo sapiens, UniProt P13569, DEL508-508); construct: expressed in transfected cells; host or cells: CFBE41o- human lung-derived epithelial cells (CFBE4lo-F508delCFTR-HRP), doxycycline-inducible; assay: Cell Surface Expression-Horse Radish Peroxidase (CSE-HRP) Assay; format: cell-based; conditions: CSE-HRP; with co-corrector (2 μM of 3-[(2R,4R)-4-({[1-(2,2-difluoro-1,3-benzodioxol-5-yl)cyclopropyl]carbonyl}amino)-7-methoxy-3,4-dihydro-2H-chromen-2-yl]benzoic acid); read-out: EC50 (with co-corrector)
pEC50: −log10 of the molar value.
metricName: pEC50

Input: Determine its reported pEC50: COC(=O)N1CCC[C@H](C(=O)N2[C@H](c3ccccc3)[C@H](Nc3cc(C(F)(F)F)cc(C)n3)[C@@H](C(C)(C)C)[C@@H]2C(=O)O)C1 (racemic)
Output: 5.00 to 6.00

Input: Determine its reported pEC50: COc1ccc(C(C)(C)C)cc1CN[C@H]1[C@H](C(C)(C)C)[C@@H](C(=O)O)N(C(=O)C(C)Oc2ccc(F)cc2)[C@H]1c1ccccc1 (stereo partly drawn)
Output: > 6.00

Input: Determine its reported pEC50: COc1ccc(C(C)(C)C)cc1CN[C@H]1[C@H](C(C)(C)C)[C@@H](C(=O)O)N(C(=O)CC2CCC(F)(F)C2)[C@H]1c1ccccc1 (stereo partly drawn)
Output: 5.00 to 6.00

Input: Determine its reported pEC50: COc1ccc(C(C)(C)C)cc1CN[C@H]1[C@H](C(C)(C)C)[C@@H](C(=O)O)N(C(=O)CC2CCOc3ccccc32)[C@H]1c1ccccc1 (stereo partly drawn)
Output: 5.00 to 6.00

Input: Determine its reported pEC50: "COc1ncc(C(C)C)cc1CN[C@H]1[C@H](C(C)(C)OC)[C@@H](C(=O)O)N(C(=O)C2CCCCC2)[C@H]1c1ccccc1"
Output: 5.00 to 6.00

Input: Determine its reported pEC50: COc1ccc(C(F)(F)F)cc1CN[C@@H]1[C@@H](C(C)(C)C)[C@H](C(=O)O)N(C(=O)[C@@H]2CCCO[C@@H]2C)[C@@H]1c1ccccc1 (racemic)
Output: 5.00 to 6.00

Input: Determine its reported pEC50: "COc1cc(C(C)(C)C)ccc1CN[C@H]1[C@H](C(C)(C)C)[C@@H](C(=O)O)N(C(=O)C2CCCCC2)[C@H]1c1cccnc1N(C)C"
Output: > 6.00

Input: Determine its reported pEC50: "COc1ccc(C(C)(C)C)cc1CN[C@H]1[C@H](C(C)(C)C)[C@@H](C(=O)O)N(C(=O)c2c(OC)cnn2C)[C@H]1c1ccccc1"
Output: 5.00 to 6.00

Input: Determine its reported pEC50: COc1ncccc1NC1CC(N[C@H]2[C@H](C(C)(C)C)[C@@H](C(=O)O)N(C(=O)OC(C)C)[C@H]2c2ccccc2C2CC2)C1 (stereo partly drawn)
Output: 5.00 to 6.00

Input: Determine its reported pEC50: Cc1cc(C(F)(F)F)cc(N[C@@H]2[C@@H](C(C)(C)C)[C@H](C(=O)O)N(C(=O)OC(C)C)[C@@H]2c2ccccc2)n1 (racemic)
Output: 5.00 to 6.00

Input: Determine its reported pEC50: COc1ccc(C(F)(F)F)cc1CN[C@H]1[C@H](C(C)(C)C)[C@@H](C(=O)O)N(C(=O)[C@H](OC)c2ccccc2)[C@H]1c1cccnc1N(C)C (racemic)
Output: 5.00 to 6.00

Input: Determine its reported pEC50: COc1cc(C(F)(F)F)ccc1CN[C@@H]1[C@@H](C(C)(C)C)[C@H](C(=O)O)N(C(=O)C(C)Oc2ccccc2)[C@@H]1c1ccccc1 (single isomer, unassigned)
Output: 5.00 to 6.00

Input: Determine its reported pEC50: COc1ccc(C(C)(C)C)cc1CN[C@H]1[C@H](C(C)(C)C)[C@@H](C(=O)O)N(C(=O)CC2CCCO2)[C@H]1c1ccccc1 (stereo partly drawn)
Output: 5.00 to 6.00

Input: Determine its reported pEC50: COc1ccc(C(C)(C)C)cc1CN[C@H]1[C@H](C(C)(C)C)[C@@H](C(=O)O)N(C(=O)C2CC(C)C2)[C@H]1c1ccccc1 (stereo partly drawn)
Output: 5.00 to 6.00

Input: Determine its reported pEC50: COc1ccc(C(C)(C)C)cc1CN[C@H]1[C@H](C(C)(C)C)[C@@H](C(=O)O)N(C(=O)C2COC(C(C)C)OC2)[C@H]1c1ccccc1 (stereo partly drawn)
Output: 5.00 to 6.00

Input: Determine its reported pEC50: "COc1ccc(C2CCCCC2)cc1CN[C@H]1[C@H](C(C)(C)C)[C@@H](C(=O)O)N(C(=O)C2CCCCC2)[C@H]1c1ccccc1"
Output: > 6.00

Input: Determine its reported pEC50: "CC(C)(C)[C@H]1[C@H](NCc2cc(Cl)ccc2OCC2CC2)[C@H](c2ccccc2)N(C(=O)C2CCCCC2)[C@@H]1C(=O)O"
Output: 5.00 to 6.00

Input: Determine its reported pEC50: COc1ccc(C(F)(F)F)cc1CN[C@H]1[C@H](C(C)(C)C)[C@@H](C(=O)O)N(C(=O)C(OC)C(C)C)[C@H]1c1ccccc1 (stereo partly drawn)
Output: 5.00 to 6.00

Input: Determine its reported pEC50: "COc1ccc(C(C)(C)C)cc1CN[C@H]1[C@H](C(C)(C)C)[C@@H](C(=O)O)N(C(=O)Cc2cc(F)cc(F)c2)[C@H]1c1ccccc1"
Output: > 6.00

Input: Determine its reported pEC50: "COc1ccc(C2CCCCC2)cc1CN[C@H]1[C@H](C(C)(C)OC)[C@@H](C(=O)O)N(C(=O)C2CCCCC2)[C@H]1c1ccccc1"
Output: > 6.00

Input: Determine its reported pEC50: COc1cc(C(F)(F)F)ccc1CN[C@@H]1[C@@H](C(C)(C)C)[C@H](C(=O)O)N(C(=O)OC(C)C)[C@@H]1c1ccccc1N(C)C (racemic)
Output: 5.00 to 6.00

Input: Determine its reported pEC50: "COc1ccccc1C1(CN[C@H]2[C@H](C(C)(C)C)[C@@H](C(=O)O)N(C(=O)OC(C)C)[C@H]2c2ccccc2)CCOCC1"
Output: 5.00 to 6.00

Input: Determine its reported pEC50: "COc1cc(C(F)(F)F)ccc1CN[C@H]1[C@H](C(C)(C)C)[C@@H](C(=O)O)N(C(=O)C2CCCCC2)[C@H]1c1ccccc1F"
Output: 5.00 to 6.00

Input: Determine its reported pEC50: COc1ccc(C(C)(C)C)cc1CN[C@H]1[C@H](C(C)(C)C)[C@@H](C(=O)O)N(C(=O)C(OC)c2cccc(Cl)c2)[C@H]1c1ccccc1 (single isomer, unassigned) [II-270]
Output: > 6.00
